IC50 overview
molecular target: cDNA-expressed human hepatic CYP3A4 (Homo sapiens, UniProt P08684); construct: purchased BD Gentest 456202; experiment: P450 CYP3A4 inhibitory activity screening (BFC substrate, fluorescence); assay type: biochemical; settings: human CYP3A4 supersome, substrate BFC, 10 min incubation at 37° C.; read-out: IC50 values of Compounds against CYP3A4 activity
Sequence (P08684 whole entry): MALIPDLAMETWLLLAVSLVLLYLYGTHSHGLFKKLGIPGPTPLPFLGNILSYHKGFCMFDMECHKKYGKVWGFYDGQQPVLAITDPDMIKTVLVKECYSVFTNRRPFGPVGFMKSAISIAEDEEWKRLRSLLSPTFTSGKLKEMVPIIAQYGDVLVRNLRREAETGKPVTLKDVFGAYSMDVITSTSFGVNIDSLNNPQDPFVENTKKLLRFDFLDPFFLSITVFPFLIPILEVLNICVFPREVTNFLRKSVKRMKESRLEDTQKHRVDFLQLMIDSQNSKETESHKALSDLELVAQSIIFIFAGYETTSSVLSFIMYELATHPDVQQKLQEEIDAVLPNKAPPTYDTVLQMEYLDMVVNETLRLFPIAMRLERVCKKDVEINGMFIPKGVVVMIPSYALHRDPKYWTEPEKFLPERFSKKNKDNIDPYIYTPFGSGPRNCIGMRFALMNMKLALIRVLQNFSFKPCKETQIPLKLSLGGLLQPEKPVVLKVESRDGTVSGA

Ask | Item C=CCN1CC(=O)N2[C@@H](Cc3ccc(O)cc3)C(=O)N(Cc3cccc(NC(=O)OC)c3)C[C@@H]2N1C(=O)NCc1ccccc1 (single isomer, unassigned) has what recorded IC50?
Reply | 24.2 µM

Ask | Item C=CCN1CC(=O)N2[C@@H](Cc3ccc(O)cc3)C(=O)N(Cc3cccc4c3nc(C(F)(F)F)n4C)C[C@@H]2N1C(=O)NCc1ccccc1 has what recorded IC50?
Reply | > 10 µM

Ask | Item C=CCN1CC(=O)N2[C@@H](Cc3ccc(O)cc3)C(=O)N(Cc3cccc(N(C)C(=O)OC)c3)C[C@@H]2N1C(=O)NCc1ccccc1 has what recorded IC50?
Reply | 10.2 µM

Ask | Item C=CCN1CC(=O)N2[C@@H](Cc3ccc(O)cc3)C(=O)N(Cc3cccc(C(=O)NC)n3)C[C@@H]2N1C(=O)NCc1ccccc1 has what recorded IC50?
Reply | 13.1 µM

Ask | Item C=CCN1CC(=O)N2[C@@H](Cc3ccc(O)cc3)C(=O)N(Cc3cccc(C(=O)NCCOC)c3)C[C@@H]2N1C(=O)NCc1ccccc1 has what recorded IC50?
Reply | 34.6 µM

---

test system: Wnt signaling; assay: TopFlash reporter gene bioassay in SW480 cells; format: cell-based; conditions: Homo sapiens, SW480; read-out: RGA, IC50 (μM) TopF
Reported metric: IC50 (µM)
Express it in µM; write the number only.

Ask | Item C=CCN1CC(=O)N2[C@@H](Cc3ccc(OP(=O)(O)O)cc3)C(=O)N(Cc3csc4ccccc34)C[C@@H]2N1C(=O)NCc1ccccc1 [compound 35] has what recorded IC50?
Reply | 0.59

Ask | Item C=CCN1CC(=O)N2[C@@H](Cc3ccc(OP(=O)(O)O)cc3)C(=O)N(Cc3ccc(F)c4scnc34)C[C@@H]2N1C(=O)NCc1ccc2c(c1)OCO2 [compound 77] has what recorded IC50?
Reply | 0.94

Ask | Item C=CCN1CC(=O)N2[C@@H](Cc3ccc(O)cc3)C(=O)N(Cc3csc4ccc(NC=O)cc34)C[C@@H]2N1C(=O)NCc1ccccc1 [compound 185] has what recorded IC50?
Reply | 2.61

Ask | Item C=CCN1CC(=O)N2[C@@H](Cc3ccc(OC(N)=O)cc3)C(=O)N(Cc3ccc(F)cc3F)C[C@@H]2N1C(=O)NCc1ccccc1 [compound 251] has what recorded IC50?
Reply | 1.14

Ask | Item C=CCN1CC(=O)N2[C@@H](Cc3ccc(OP(=O)(O)O)cc3)C(=O)N(Cc3cccc4ccnn34)C[C@@H]2N1C(=O)NCc1ccccc1 [compound 92] has what recorded IC50?
Reply | 1.04

Ask | Item C=CCN1CC(=O)N2[C@@H](Cc3ccc(OP(=O)(O)O)cc3)C(=O)N(Cc3ccccc3SC)C[C@@H]2N1C(=O)NCc1ccccc1 [compound 42] has what recorded IC50?
Reply | 0.66

---

Biological target: cDNA-expressed human hepatic CYP3A4 (Homo sapiens, UniProt P08684)
Construct: purchased BD Gentest 456202
Assay: P450 CYP3A4 inhibitory activity screening (BFC substrate, fluorescence)
Type: biochemical
Conditions: P450 CYP3A4 inhibitory activity screening, fluorescent assay; read-out: CYP3A4 inhibition, IC50 (μM) fluorescent assay
Experimental: P450 CYP3A4 Inhibitory Activity Screening Assay was conducted in a 200 μL volume in 96-well microtiter plates using cDNA-expressed human hepatic CYP3A4 (supersome, BD Gentest™ #456202). 7-Benzyloxy-4-trifluoromethyl-coumarin (BFC) was used as a substrate for CYP3A4. […] Thereafter, Fluorescent signal was measured using a fluorometer. BFC metabolite, 7-hydroxy-4-trifluoromethyl-coumarin, was measured using an excitation wavelength of 409 nm and an emission wavelength of 530 nm.
Reported metric: IC50 (µM)
Express it in µM; write the number only.

Ask | For cDNA-expressed human hepatic CYP3A4 (Homo sapiens, UniProt P08684), provide IC50 of C=CCN1CC(=O)N2[C@@H](Cc3ccc(OS(N)(=O)=O)cc3)C(=O)N(Cc3cccc(C(=O)NC)n3)C[C@@H]2N1C(=O)NCc1ccccc1 please.
Reply | 26.4

Here is another compound to look at.
Ask | For cDNA-expressed human hepatic CYP3A4 (Homo sapiens, UniProt P08684), provide IC50 of C=CCN1CC(=O)N2[C@@H](Cc3ccc(O)cc3)C(=O)N(Cc3ccccc3S(C)(=O)=O)C[C@@H]2N1C(=O)NCc1ccccn1 please.
Reply | 24.5
